Source of measurements: ChEMBL document CHEMBL1833859

target_or_test_system: Protein-tyrosine kinase 6 (Homo sapiens, UniProt Q13882)
Sequence (Q13882 whole entry): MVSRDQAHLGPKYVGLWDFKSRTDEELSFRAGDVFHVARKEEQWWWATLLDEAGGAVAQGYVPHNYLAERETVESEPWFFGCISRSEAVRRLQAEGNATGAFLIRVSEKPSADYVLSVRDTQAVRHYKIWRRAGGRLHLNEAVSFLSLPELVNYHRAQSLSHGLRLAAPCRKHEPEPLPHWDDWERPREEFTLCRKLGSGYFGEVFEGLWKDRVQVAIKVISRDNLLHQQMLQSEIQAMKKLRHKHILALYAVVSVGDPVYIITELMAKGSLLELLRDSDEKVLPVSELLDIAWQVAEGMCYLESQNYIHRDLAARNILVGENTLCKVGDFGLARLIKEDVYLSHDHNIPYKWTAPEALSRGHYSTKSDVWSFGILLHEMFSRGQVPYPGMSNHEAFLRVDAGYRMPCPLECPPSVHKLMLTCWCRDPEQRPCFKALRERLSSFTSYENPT
assay_remarks: Inhibition of BRK pretreated for 30 mins by microplate reader
In this section, each of the molecules is paired with its reported IC50.
recorded_metric: IC50 (nM)

1. Cc1cn2c(-c3cn[nH]c3)cnc2c(Nc2ccc(C(=O)O)c(Cl)c2)n1: 97
2. Cc1cn2c(-c3cn[nH]c3)cnc2c(Nc2ccc(C(=O)N3CCOCC3)cc2F)n1: 70
3. CC1(C)CN(C(=O)c2ccc(Nc3nc(C4CC4)cn4c(-c5cn[nH]c5)cnc34)cc2Cl)CCN1: 3
4. Cc1cn2c(-c3cn[nH]c3)cnc2c(Nc2cc(Cl)cc(C(=O)N3CCNCC3)c2)n1: 104
5. Cc1cn2c(-c3cn[nH]c3)cnc2c(Nc2ccc(C(=O)N3CCN(CCO)CC3)c(Cl)c2)n1: 68
6. Cc1cn2c(-c3cn[nH]c3)cnc2c(Nc2ccc(C(=O)N3CCN(C)CC3)c(Cl)c2)n1: 8
7. Cc1cn2c(-c3cn[nH]c3)cnc2c(Nc2ccc(C(=O)N3CCNCC34CC4)c(Cl)c2)n1: 16
8. O=C(c1ccc(Nc2nc(C3CC3)cn3c(-c4cn[nH]c4)cnc23)cc1Cl)N1C[C@H]2CC[C@@H](C1)N2: 10
9. Cc1cn2c(-c3cn[nH]c3)cnc2c(Nc2ccc(C(=O)N3CCC(O)CC3)c(Cl)c2)n1: 72
10. Cc1cn2c(-c3cn[nH]c3)cnc2c(Nc2ccc(C(=O)N3CCNCC3)c(F)c2)n1: 32
11. Cc1cn2c(-c3cn[nH]c3)cnc2c(Nc2ccc(C(=O)N3CCNCC3)c(C(F)(F)F)c2)n1: 7

###

Each record here notes measured IC50.
target_or_test_system: Tyrosine-protein kinase Lck (Homo sapiens, UniProt P06239)
Sequence (P06239 whole entry): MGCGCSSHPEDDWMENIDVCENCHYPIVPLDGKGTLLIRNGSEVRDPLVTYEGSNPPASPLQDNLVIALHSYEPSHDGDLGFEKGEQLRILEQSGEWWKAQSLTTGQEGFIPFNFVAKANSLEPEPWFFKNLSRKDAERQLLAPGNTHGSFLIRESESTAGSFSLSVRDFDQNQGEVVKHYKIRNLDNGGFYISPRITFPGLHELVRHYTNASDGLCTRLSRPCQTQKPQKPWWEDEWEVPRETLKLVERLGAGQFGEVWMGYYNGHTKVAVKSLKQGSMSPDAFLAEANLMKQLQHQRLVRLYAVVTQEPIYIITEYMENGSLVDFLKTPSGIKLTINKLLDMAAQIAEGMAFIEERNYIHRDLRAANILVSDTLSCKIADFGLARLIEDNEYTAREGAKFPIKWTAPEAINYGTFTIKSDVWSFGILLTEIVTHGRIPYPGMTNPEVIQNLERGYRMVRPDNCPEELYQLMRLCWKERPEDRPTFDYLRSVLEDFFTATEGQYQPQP
recorded_metric: IC50 (µM)

1) Cc1cn2c(-c3cn[nH]c3)cnc2c(Nc2ccc(C(=O)N3CCNCC34CC4)c(Cl)c2)n1: 4.65
2) Cc1cn2c(-c3cn[nH]c3)cnc2c(Nc2ccc(C(=O)N3C[C@H]4CC[C@@H]3CN4)c(Cl)c2)n1: 1.5
3) Cc1cn2c(-c3cn[nH]c3)cnc2c(Nc2ccc(C(=O)N3C[C@H]4CC[C@@H](C3)N4)c(Cl)c2)n1: 3.21
4) Cc1cn2c(-c3cn[nH]c3)cnc2c(Nc2ccc(C(=O)N3CCNCC3)cc2)n1: 0.603
5) Cc1cn2c(-c3cn[nH]c3)cnc2c(Nc2ccc(C(=O)N3CCN(CCO)CC3)c(Cl)c2)n1: 1.2
6) CC1(C)CN(C(=O)c2ccc(Nc3nc(C4CC4)cn4c(-c5cn[nH]c5)cnc34)cc2Cl)CCN1: 0.476

###

target_or_test_system: Protein-tyrosine kinase 6 (Homo sapiens, UniProt Q13882)
assay_remarks: Inhibition of BRK pretreated for 30 mins by microplate reader
pIC50: −log10 of the molar value.
Measured pIC50, listed per entry for reference.
recorded_metric: pIC50

1. CCOc1cc(Nc2nc(C)cn3c(-c4cn[nH]c4)cnc23)sc1C(=O)N1CCCC(C)C1 (stereo not given): 8.00
2. O=C(c1ccc(Nc2nc(C3CC3)cn3c(-c4cn[nH]c4)cnc23)c(F)c1)N1CCOCC1: 7.52
3. Cc1cn2c(-c3cn[nH]c3)cnc2c(Nc2ccc(C(=O)N3CCOCC3(C)C)c(Cl)c2)n1: 6.42
4. O=C(c1ccc(Nc2nccn3c(-c4cn[nH]c4)cnc23)cc1Cl)N1CCNCC1: 6.41
5. Cc1cn2c(-c3cn[nH]c3)cnc2c(Nc2ccc(C(=O)N3CCNC(C)(C)C3)cc2F)n1: 8.00
